Details: PAMPA, PAMPA_Papp_Avg (apparent permeability)
Where a SMILES comes first, the peptide text is derived from it. [ ]: non-standard residue; d: D form. NMeF = CN[C@@H](Cc1ccccc1)C(=O)O; NMeL = CN[C@@H](CC(C)C)C(=O)O; dNMeL = CN[C@H](CC(C)C)C(=O)O; dNMeA = CN[C@H](C)C(=O)O
// NB: equality with 0.6 ×10⁻⁶ cm/s counts as condition not met; only Papp strictly below is condition met

Solved cases below.
compound="CC[C@H](C)[C@@H]1NC(=O)[C@H](Cc2ccccc2)N(C)C(=O)[C@H]2CCCN2C(=O)[C@@H](CC(C)C)N(C)C(=O)[C@@H](Cc2ccccc2)NC(=O)[C@H](C(C)C)NC(=O)[C@H](CC(C)C)NC(=O)[C@H]2CCCN2C(=O)[C@H](CC(C)C)NC(=O)[C@@H]2CCCN2C1=O [Design D10.50, LVf*lp*FIPLp] (cyclo(IPL[dP]LV[dF][dNMeL][dP][NMeF]))" class_name="condition not met"
compound="CC[C@H](C)[C@@H]1NC(=O)[C@@H](CC(C)C)N(C)C(=O)[C@H](CC(C)C)N(C)C(=O)[C@@H](Cc2ccccc2)NC(=O)[C@@H](CC(C)C)N(C)C(=O)[C@H]2CCCN2C(=O)[C@H]2CCCN2C(=O)[C@@H]2CCCN2C(=O)[C@@H](C(C)C)NC(=O)[C@@H]2CCCN2C(=O)[C@H](C)NC1=O [Design D11.11, Ppp*lf*L*lIAPv] (cyclo(AP[dV]P[dP][dP][dNMeL][dF][NMeL][dNMeL]I))" class_name="condition not met"
compound="CSCC[C@@H]1NC(=O)[C@@H](C)N(C)C(=O)[C@@H]2CCCN2C(=O)[C@@H](CC(C)C)NC(=O)[C@H](CC(C)C)N(C)C(=O)[C@H]2CCCN2C(=O)[C@H](CC(C)C)NC(=O)[C@@H](CC(C)C)NC(=O)[C@@H](C)NC1=O [Design D9.28, lLp*LlP*aMa] (cyclo(L[dP][NMeL][dL]P[dNMeA]M[dA][dL]))" class_name="condition not met"
compound="CC[C@H](C)[C@@H]1NC(=O)[C@@H](C)N(C)C(=O)[C@@H](C)N(C)C(=O)[C@@H]2CCCN2C(=O)[C@H](CC(C)C)NC(=O)[C@H](CC(C)C)NC(=O)[C@@H](CC(C)C)NC(=O)[C@@H]2CCCN2C(=O)[C@H]2CCCN2C1=O [Design D9.11, PlLLP*a*aIp] (cyclo([dL]LLP[dNMeA][dNMeA]I[dP]P))" class_name="condition met"

Task item: For CC[C@@H](C)[C@H]1NC(=O)[C@H]2CCCN2C(=O)[C@@H](C)NC(=O)[C@@H](CC(C)C)N(C)C(=O)[C@H]([C@@H](C)CC)NC(=O)[C@@H](C(C)C)NC(=O)[C@@H](CC(C)C)N(C)C(=O)[C@@H]2CCCN2C(=O)[C@@H]2CCCN2C1=O [Design D9.26, piPP*lvI*la] (cyclo(I[dNMeL][dA][dP][dI]PP[dNMeL][dV])) , is the recorded Papp below the cut-off of 0.6 ×10⁻⁶ cm/s?
Reply: condition not met

Task item: For CSCC[C@@H]1NC(=O)[C@@H]2CCCN2C(=O)[C@@H](C(C)C)NC(=O)[C@@H](C)N(C)C(=O)[C@@H](CC(C)C)NC(=O)[C@@H](CC(C)C)NC(=O)[C@@H]2CCCN2C(=O)[C@H]2CCCN2C1=O [Design D8.29, MpPll*avP] (cyclo([dL][dL][dNMeA][dV]PM[dP]P)) , is the recorded Papp below the cut-off of 0.6 ×10⁻⁶ cm/s?
Reply: condition met
